Biological target: RPS6KB1 (Homo sapiens, UniProt P23443)
Sequence (P23443 whole entry): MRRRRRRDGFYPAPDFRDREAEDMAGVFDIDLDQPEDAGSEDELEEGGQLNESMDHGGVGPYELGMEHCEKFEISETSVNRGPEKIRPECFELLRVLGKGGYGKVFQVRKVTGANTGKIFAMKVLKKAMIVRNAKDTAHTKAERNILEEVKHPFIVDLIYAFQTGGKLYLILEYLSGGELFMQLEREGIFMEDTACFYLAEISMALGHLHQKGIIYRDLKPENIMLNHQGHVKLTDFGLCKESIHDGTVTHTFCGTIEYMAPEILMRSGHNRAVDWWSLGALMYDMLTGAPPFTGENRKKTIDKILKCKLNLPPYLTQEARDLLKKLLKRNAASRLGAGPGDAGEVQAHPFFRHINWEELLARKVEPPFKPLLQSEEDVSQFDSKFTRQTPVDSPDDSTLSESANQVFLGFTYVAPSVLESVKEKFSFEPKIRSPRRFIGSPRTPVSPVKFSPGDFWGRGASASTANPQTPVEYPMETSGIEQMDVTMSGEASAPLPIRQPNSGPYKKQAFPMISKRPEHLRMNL
Test: biochemical
assayEndpoint: IC50

Returns the measured IC50 for the input compound. Input: CN(C)CC(O)COc1ccc(Nc2ncc([N+](=O)[O-])c(Nc3ccccc3O)n2)cc1.O=C(O)C(F)(F)F (stereo not shown)
> 20 µM

====

Target: AAK1 (Homo sapiens)
Sequence (Q2M2I8 whole entry): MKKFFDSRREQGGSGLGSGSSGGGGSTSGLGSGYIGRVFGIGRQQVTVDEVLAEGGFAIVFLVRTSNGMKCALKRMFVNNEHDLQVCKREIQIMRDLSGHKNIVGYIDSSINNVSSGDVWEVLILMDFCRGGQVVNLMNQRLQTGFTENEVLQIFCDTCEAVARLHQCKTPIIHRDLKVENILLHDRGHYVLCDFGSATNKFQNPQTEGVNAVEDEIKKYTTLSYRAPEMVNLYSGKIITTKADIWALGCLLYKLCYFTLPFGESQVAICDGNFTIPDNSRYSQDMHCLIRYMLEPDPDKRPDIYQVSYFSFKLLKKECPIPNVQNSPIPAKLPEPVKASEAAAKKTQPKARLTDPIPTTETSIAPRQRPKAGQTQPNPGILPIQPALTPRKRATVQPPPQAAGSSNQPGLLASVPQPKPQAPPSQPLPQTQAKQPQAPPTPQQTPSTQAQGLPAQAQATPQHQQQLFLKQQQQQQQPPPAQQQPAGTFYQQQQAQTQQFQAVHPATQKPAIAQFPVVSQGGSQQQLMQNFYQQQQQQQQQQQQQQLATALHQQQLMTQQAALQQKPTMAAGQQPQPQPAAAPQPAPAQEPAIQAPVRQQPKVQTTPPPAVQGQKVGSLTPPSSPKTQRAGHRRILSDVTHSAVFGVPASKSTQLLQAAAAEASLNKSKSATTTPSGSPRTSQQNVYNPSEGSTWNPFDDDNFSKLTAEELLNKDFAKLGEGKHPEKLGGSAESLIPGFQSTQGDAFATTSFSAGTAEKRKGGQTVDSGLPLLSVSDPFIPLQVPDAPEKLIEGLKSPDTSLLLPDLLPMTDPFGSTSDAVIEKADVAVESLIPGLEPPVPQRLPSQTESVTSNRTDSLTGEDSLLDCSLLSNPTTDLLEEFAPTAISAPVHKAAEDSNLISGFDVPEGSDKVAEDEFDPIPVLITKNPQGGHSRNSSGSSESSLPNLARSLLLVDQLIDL
Experiment: biochemical
pIC50: −log10 of the molar value.
assayEndpoint: pIC50

// known answers, use as guide
[[record]]
compound = "CN1CCN(c2ccc(Nc3ncc(C#N)c(Nc4ccccc4C(N)=O)n3)cc2)CC1.Cl"
testtarget = "AAK1 (Homo sapiens)"
assayendpoint = "pIC50"
result = 6.72

[[record]]
compound = "Cl.NCC1(c2nc(-c3ccc(Cl)c(O)c3)c(-c3ccncc3)[nH]2)CCCCC1"
testtarget = "AAK1 (Homo sapiens)"
assayendpoint = "pIC50"
result = "< 4.70"


Returns the measured pIC50 for the input compound. Input: CN(C)CC(O)COc1ccc(Nc2ncc([N+](=O)[O-])c(Nc3ccccc3O)n2)cc1.O=C(O)C(F)(F)F (stereo not drawn)
< 4.70
